Test system: HeLa
Experiment: Cytotoxicity in human HeLa cells assessed as reduction in cell viability incubated for 24 hrs by CCK8 assay
Format: functional, cell-based
Property: pIC50
Please note pIC50 is a logarithmic value: minus log10 of concentration in mol/L. Answer with that number alone.

Supply recorded pIC50 for "H-KGWFKAMKSIAKFIAKEKLKEHL-OH" here.
4.58

----------
Tested on: PC-3
Test: Cytotoxicity in human PC3 cells assessed as reduction in cell viability incubated for 24 hrs by CCK8 assay
Assay type: functional, cell-based
Conditions: PC-3, 24 h
Property: pIC50
Please note pIC50 is a logarithmic value: minus log10 of concentration in mol/L. Answer with that number alone.

Supply recorded pIC50 for "H-KGWFKAMKSIAKFIAKEKLKEHL-OH" here.
4.96
